The reported numbers originate from patent US11814435B2.

Molecular target: T1, hBCMA (human BCMA) (Homo sapiens, UniProt Q02223)
T1 sequence (Q02223 1-184): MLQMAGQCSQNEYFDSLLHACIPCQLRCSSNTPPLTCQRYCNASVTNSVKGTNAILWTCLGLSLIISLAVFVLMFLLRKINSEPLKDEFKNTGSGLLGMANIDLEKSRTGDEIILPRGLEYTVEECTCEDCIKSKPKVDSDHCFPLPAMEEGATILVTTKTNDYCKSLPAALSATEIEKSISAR
Assay: Kinetics and affinity of hBCMA/human IgG interactions by SPR (Bio-Rad Proteon XPR36)
Assay type: binding
Conditions: huBCMA, 37° C.
MEASUREMENT_NAME: kd (1/s) huBCMA @37° C. (s⁻¹)
The reply should contain only the number, in s⁻¹.

INSERT INTO measurements (molecule, measurement_units, endpoint_value) VALUES
  ('L3.PY/L1.PS/H3.AE: anti-BCMA antibody (antibody, V domains shown) VH: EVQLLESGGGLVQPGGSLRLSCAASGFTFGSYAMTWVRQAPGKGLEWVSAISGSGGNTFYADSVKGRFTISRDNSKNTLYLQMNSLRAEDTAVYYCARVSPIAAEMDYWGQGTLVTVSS VL: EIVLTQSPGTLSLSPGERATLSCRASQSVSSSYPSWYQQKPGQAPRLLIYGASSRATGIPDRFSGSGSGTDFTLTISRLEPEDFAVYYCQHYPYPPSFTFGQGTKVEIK', 's⁻¹', 0.00146);

Identify the reported kd (1/s) huBCMA @37° C. for the following entry. L3.PY/L3.KY/H2.LT: anti-BCMA antibody (antibody, V domains shown) VH: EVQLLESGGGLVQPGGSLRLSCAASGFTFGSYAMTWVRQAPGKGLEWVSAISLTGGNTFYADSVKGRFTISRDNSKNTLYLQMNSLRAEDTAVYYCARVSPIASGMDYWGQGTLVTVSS VL: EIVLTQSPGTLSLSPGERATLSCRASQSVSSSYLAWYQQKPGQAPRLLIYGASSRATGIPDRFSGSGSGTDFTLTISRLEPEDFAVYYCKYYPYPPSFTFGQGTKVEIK 0.000906
